Would you mind telling me the reported protein stability index of each entry?
B1: SPATS1 (parent)
chain: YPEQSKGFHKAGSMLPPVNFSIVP

# Variants of: B1
# ASSAY_REMARKS: protein stability index of a GFP-peptide fusion (GPS, HEK-293T) (PSI 1-6); higher = more stable;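 note: lentivirally expressed fusions sorted by FACS into six bins by GFP to DsRed ratio, PSI derived from sequencing read proportions per bin multiplied by bin number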
# SETTINGS: c terminus: a fixed tail appended
Lab note: record the figure alone, no unit after it.

q: # lookup: protein stability index of Q4Y
a: 2.56

q: What would you report for I22A ?
a: 2.22

q: Another variant: N19C
a: 1.56

q: E3R , same question.
a: 1.64

q: Then what about the variant A11W ?
a: 1.82

q: Try this variant next: P16R
a: 1.99

q: Next: K6T
a: 1.92

q: Now consider F20I and answer again.
a: 1.73

q: Ok, now A11M
a: 1.84

q: What would you report for Q4L ?
a: 1.81

q: Another variant to check: G12C
a: 2.75

q: Cool, now P17R
a: 1.61

q: Entry P24D please
a: 2.43

q: Now the same for G7W
a: 1.7

q: Ok, now M14T
a: 1.99

q: Try this variant next: S5K
a: 2.49

q: How about N19Q ?
a: 1.87

q: And L15D ?
a: 2.29

q: Same again, this time with H9R
a: 2.42

q: Here is the next variant: F8Q
a: 3.39

q: Thanks! And V23A ?
a: 2.57

q: What about M14D ?
a: 1.96

q: Note, next up: S13L
a: 1.88

q: F20M , same question.
a: 1.97

q: Cool, now P17K
a: 1.59

q: Input G12N
a: 1.94

q: Now give it for I22Q too.
a: 2.26

q: Here is the next variant: F8W
a: 3.05

q: What would you report for L15Q ?
a: 2.47

q: // repeat for M14S and report
a: 2.17

q: Consider next the variant G12Q in the same way.
a: 1.66

q: Ok, now M14Q
a: 2.08

q: Can you handle Y1V next?
a: 3.31

q: What do you get for F8E ?
a: 3.69

q: Proceed to F20T
a: 2.24

q: Lookup I22G
a: 2.52

q: Another variant to check: M14V
a: 2.03

q: Ok, now P17F
a: 1.58

q: Moving on to the next variant: H9I
a: 2.38

q: Try Y1N next.
a: 3.52

q: Continue with M14G
a: 1.97

q: And P16A ?
a: 1.95

q: Same read-out for V18Q ?
a: 2.2

q: Cool, now H9S
a: 2.4

q: Do the same for P17G please
a: 1.83

q: Thanks! And Y1F ?
a: 2.03

q: What do we get for P2I ?
a: 1.83

q: Repeat with S5E
a: 2.69

q: Then K6L ?
a: 1.75

q: Next: Q4T
a: 1.8

q: Now consider G12D .
a: 2.08

q: Param item: N19V
a: 2.07

q: Also, S13M please.
a: 1.69

q: What about this variant? F8P
a: 3.39

q: Next up: M14Y
a: 2

q: Next variant up: G7A
a: 2.45

q: Follow-up entry: G7E
a: 1.63

q: Now consider E3Q .
a: 2.5

q: Okay, and S21Q ?
a: 1.88

q: Likewise for F20E ?
a: 2.13

q: Entry to check: V18H
a: 1.95

q: Also I22P ?
a: 2.01

q: Same thing, different variant: K10V
a: 1.76

q: Then what about the variant S5R ?
a: 2.67

q: What do you have for P24T ?
a: 3.33

q: Another variant to look at: Y1I
a: 2.77

q: Entry to check: K6N
a: 1.91

q: Note, next up: G7S
a: 1.9

q: Record: Y1A
a: 3.35

q: And then P24V , what is it?
a: 1.46

q: Follow-up item: L15S
a: 2.04

q: What about Y1Q ?
a: 3.43

q: Also F8G , if possible.
a: 3.58

q: Can you handle P24H next?
a: 1.53

q: Also E3Y ?
a: 2.03

q: Could you do the same for P24E , please?
a: 2.74

q: Another variant to check: P24F
a: 1.83

q: // same read-out, input: Q4H
a: 2.29

q: For G12P then?
a: 2

q: And what about the variant S21V ?
a: 2.24

q: // repeat for P17L and report
a: 1.62

q: Same again, this time with N19T
a: 1.75

q: // same read-out, input: P16K
a: 2.01

q: Same lookup for G7T , please.
a: 3.08

q: And then P2N , what is it?
a: 2.47

q: # iterate: S21M
a: 2.06

q: Another: P2M
a: 2.48

q: Follow-up item: E3G
a: 1.82

q: Next record, please: V18G
a: 2.48

q: // next record Q4G
a: 1.89

q: Also check H9Y
a: 2.21

These data points were gathered from the supplement of paper PMC10567573.
